EXPERIMENTAL_DETAILS: solvent given as SMILES
TEST_SETTINGS: in CCCCCCCC
Quick list: fluorescence lifetime per entry.
I only need the number, in ns, no unit after it.

These recorded examples may help you get a feel for the data.
[
  {
    "INPUT_SMILES": "CCC1(CC)c2cc(-c3ccc(-c4ccc5c(c4)C(CC)(CC)c4cc(C(C)(C)C)ccc4-5)cc3)ccc2-c2ccc(C(C)(C)C)cc21",
    "READING_UNIT": "ns",
    "REPORTED": 0.7
  },
  {
    "INPUT_SMILES": "COc1ncccc1B(O)O",
    "READING_UNIT": "ns",
    "REPORTED": 0.299
  },
  {
    "INPUT_SMILES": "CCC1(CC)c2cc(-c3ccc(C(C)(C)C)cc3)ccc2-c2ccc(-c3ccc4c(c3)C(CC)(CC)c3cc(-c5ccc6c(c5)C(CC)(CC)c5cc(-c7ccc(C(C)(C)C)cc7)ccc5-6)ccc3-4)cc21",
    "READING_UNIT": "ns",
    "REPORTED": 0.64
  }
]

Sample "CCC1(CC)c2cc(-c3ccc4c(c3)C(CC)(CC)c3cc(C(C)(C)C)ccc3-4)ccc2-c2ccc(-c3ccc4c(c3)C(CC)(CC)c3cc(C(C)(C)C)ccc3-4)cc21" — what was its fluorescence lifetime?
0.7

Sample "CCC1=C(C)C2=C(C)c3c(C)c(CC)c(C)n3[B-](F)(F)[N+]2=C1C" — what was its fluorescence lifetime?
5.84

====

EXPERIMENTAL_DETAILS: solvent given as SMILES
TEST_SETTINGS: in CCCCCCCO
MEASURED_PARAMETER: fluorescence lifetime

[
  {
    "MOLECULE": "CCC1(CC)c2cc(-c3ccc(-c4ccc5c(c4)C(CC)(CC)c4cc(C(C)(C)C)ccc4-5)cc3)ccc2-c2ccc(C(C)(C)C)cc21",
    "fluorescence lifetime": "0.8 ns"
  },
  {
    "MOLECULE": "CCC1(CC)c2cc(-c3ccc4c(c3)C(CC)(CC)c3cc(C(C)(C)C)ccc3-4)ccc2-c2ccc(-c3ccc4c(c3)C(CC)(CC)c3cc(C(C)(C)C)ccc3-4)cc21",
    "fluorescence lifetime": "0.75 ns"
  },
  {
    "MOLECULE": "COC(=O)C(Cc1ccc2oc(-c3ccc(N(C)C)cc3)nc2c1)NC(=O)OC(C)(C)C (configuration not stated)",
    "fluorescence lifetime": "1.3 ns"
  },
  {
    "MOLECULE": "COC(=O)C(Cc1ccc2oc(-c3ccc(N(C)c4ccccc4)cc3)nc2c1)NC(=O)OC(C)(C)C (configuration not stated)",
    "fluorescence lifetime": "4.34 ns"
  },
  {
    "MOLECULE": "COC(=O)C(Cc1ccc2oc(-c3ccc(Nc4ccccc4)cc3)nc2c1)NC(=O)OC(C)(C)C (configuration not stated)",
    "fluorescence lifetime": "2.23 ns"
  },
  {
    "MOLECULE": "COC(=O)C(Cc1ccc2oc(-c3ccc4c(c3)c3ccccc3n4-c3ccccc3)nc2c1)NC(=O)OC(C)(C)C (configuration not stated)",
    "fluorescence lifetime": "1.55 ns"
  }
]

Now look at this entry.
Sample "CCC1(CC)c2cc(-c3ccc(C(C)(C)C)cc3)ccc2-c2ccc(-c3ccc4c(c3)C(CC)(CC)c3cc(-c5ccc6c(c5)C(CC)(CC)c5cc(-c7ccc(C(C)(C)C)cc7)ccc5-6)ccc3-4)cc21" — what was its fluorescence lifetime?
0.64 ns

====

EXPERIMENTAL_DETAILS: solvent given as SMILES
TEST_SETTINGS: in CC1CCCCC1
Decision: fluorescence lifetime compared against 1 ns; not below it gives T, below it gives F.

Is the recorded value of fluorescence lifetime equal to or greater than 1 ns for this compound? COC(=O)C([NH3+])Cc1ccc2oc(-c3ccncc3)nc2c1 (configuration not stated)
T

Is the recorded value of fluorescence lifetime equal to or greater than 1 ns for this compound? COC(=O)C(NC(=O)OC(C)(C)C)c1ccc2oc(-c3ccc(OC(=O)c4ccccc4)cc3OC(=O)c3ccccc3)nc2c1 (configuration not stated)
F

Is the recorded value of fluorescence lifetime equal to or greater than 1 ns for this compound? COC(=O)C(NC(=O)OC(C)(C)C)c1ccc2oc(-c3ccc(N(C)C)cc3OC)nc2c1 (configuration not stated)
T

Is the recorded value of fluorescence lifetime equal to or greater than 1 ns for this compound? "COc1ccc(/C=C/C=C/C=C/c2ccc([N+](=O)[O-])cc2)cc1"
F

====

Quick list: fluorescence lifetime per entry.
EXPERIMENTAL_DETAILS: solvent given as SMILES
TEST_SETTINGS: in CCCCCCCCCCCCCCCC
I only need the number, in ns, no unit after it.

These recorded examples may help you get a feel for the data.
[
  {
    "INPUT_SMILES": "CN(C)c1ccc(C#Cc2ccccc2)cc1",
    "MEASURED_PARAMETER": "fluorescence lifetime",
    "REPORTED": 0.43
  },
  {
    "INPUT_SMILES": "CCC1(CC)c2cc(-c3ccc4c(c3)C(CC)(CC)c3cc(C(C)(C)C)ccc3-4)ccc2-c2ccc(-c3ccc4c(c3)C(CC)(CC)c3cc(C(C)(C)C)ccc3-4)cc21",
    "MEASURED_PARAMETER": "fluorescence lifetime",
    "REPORTED": 0.75
  },
  {
    "INPUT_SMILES": "CCC1(CC)c2cc(-c3ccc(C(C)(C)C)cc3)ccc2-c2ccc(-c3ccc4c(c3)C(CC)(CC)c3cc(-c5ccc6c(c5)C(CC)(CC)c5cc(-c7ccc(C(C)(C)C)cc7)ccc5-6)ccc3-4)cc21",
    "MEASURED_PARAMETER": "fluorescence lifetime",
    "REPORTED": 0.63
  }
]

Now look at this entry.
Sample "CCC1(CC)c2cc(-c3ccc(-c4ccc5c(c4)C(CC)(CC)c4cc(C(C)(C)C)ccc4-5)cc3)ccc2-c2ccc(C(C)(C)C)cc21" — what was its fluorescence lifetime?
0.82

====

EXPERIMENTAL_DETAILS: solvent given as SMILES
TEST_SETTINGS: in O
Quick list: log10 of fluorescence lifetime per entry.
All values: base-10 log of fluorescence lifetime in ns.

Sample "CN(C)CCCN1c2ccccc2Sc2ccccc21" — what was its log10 of fluorescence lifetime?
0.31

Sample CC1(CCCCC(=O)NCCCCCCO)C(/C=C/C=C/C=C2/N(CCCS(=O)(=O)[O-])c3ccc(S(=O)(=O)[O-])cc3C2(C)C)=[N+](CCCS(=O)(=O)[O-])c2ccc(S(=O)(=O)[O-])cc21 (stereo unspecified) — what was its log10 of fluorescence lifetime?
0.00

Sample "O=C(O)CCCCCn1c2ccccc2c(=O)c2cc(Br)ccc21" — what was its log10 of fluorescence lifetime?
0.93

Sample "COc1cc(/C=C2/SC(=O)NC2=O)cc(OC)c1O" — what was its log10 of fluorescence lifetime?
-0.47

Sample "Nc1cc(N)cc(-c2nc3ccccc3s2)c1" — what was its log10 of fluorescence lifetime?
0.12

====

Quick list: fluorescence lifetime per entry.
EXPERIMENTAL_DETAILS: solvent given as SMILES
TEST_SETTINGS: in ClCCCl
I only need the number, in ns, no unit after it.

[
  {
    "COMPOUND": "CCCCCCOc1ccc(C#Cc2ccc(C#CC#Cc3ccc(C#Cc4ccc(OCCCCCC)c(OCCCCCC)c4)c4nsnc34)c3nsnc23)cc1OCCCCCC",
    "fluorescence lifetime (ns)": 2
  },
  {
    "COMPOUND": "N#Cc1ccc2nc3c(=O)[nH]c(=O)[nH]c3nc2c1",
    "fluorescence lifetime (ns)": 0.16
  },
  {
    "COMPOUND": "Cc1ccc2nc3c(=O)[nH]c(=O)[nH]c3nc2c1",
    "fluorescence lifetime (ns)": 0.32
  }
]

Now look at this entry.
Sample Cc1c2oc3c(C)c(N)cc(C(=O)NC4OC(=O)C(C(C)C)N(C)C(=O)CN(C)C(=O)C5CCCN5C(=O)C(C(C)C)NC4=O)c3nc-2c(C(=O)NC2OC(=O)C(C(C)C)N(C)C(=O)CN(C)C(=O)C3CCCN3C(=O)C(C(C)C)NC2=O)c(N)c1=O (centres undefined) — what was its fluorescence lifetime?
1.16

====

EXPERIMENTAL_DETAILS: solvent given as SMILES
TEST_SETTINGS: in CC#N
MEASURED_PARAMETER: fluorescence lifetime (ns)
I only need the number, in ns, no unit after it.

These recorded examples may help you get a feel for the data.
[
  {
    "MOLECULE": "CCN(CC)c1ccc2c(-c3ccc(S(=O)(=O)O)cc3S(=O)(=O)[O-])c3ccc(=[N+](CC)CC)cc-3oc2c1",
    "READING_UNIT": "ns",
    "fluorescence lifetime": 2.47
  },
  {
    "MOLECULE": "C/C=C/c1cc(OC)cc(OC)c1",
    "READING_UNIT": "ns",
    "fluorescence lifetime": 2.9
  },
  {
    "MOLECULE": "CNc1cccc2c1-c1ccccc1C2=O",
    "READING_UNIT": "ns",
    "fluorescence lifetime": 2.2
  },
  {
    "MOLECULE": "COc1ccc(-c2cc(-c3ccc(OC)cc3)c3c(N)nc(N4CCCC4)c(C#N)c3n2)cc1",
    "READING_UNIT": "ns",
    "fluorescence lifetime": 11.6
  }
]

Now look at this entry.
Sample NS(=O)(=O)c1ccc(N2N=C(c3ccc(O)cc3)CC2c2ccc(F)cc2)cc1 (stereo not given) — what was its fluorescence lifetime?
2.24

All figures here come from the Deep4Chem optical property database.
